Ref: patent US20200048267A1

Reported log10 IC50 is given for each of the following compounds.
- target system: recombinant human Meningioma Expressed Antigen 5 (MGEA5), also referred to as O-GlcNAcase (OGA) (Homo sapiens)
- Construct: Full length OGA enzyme was purchased at OriGene (cat # TP322411); purchased OriGene TP322411
- Sequence (O60502 1-916): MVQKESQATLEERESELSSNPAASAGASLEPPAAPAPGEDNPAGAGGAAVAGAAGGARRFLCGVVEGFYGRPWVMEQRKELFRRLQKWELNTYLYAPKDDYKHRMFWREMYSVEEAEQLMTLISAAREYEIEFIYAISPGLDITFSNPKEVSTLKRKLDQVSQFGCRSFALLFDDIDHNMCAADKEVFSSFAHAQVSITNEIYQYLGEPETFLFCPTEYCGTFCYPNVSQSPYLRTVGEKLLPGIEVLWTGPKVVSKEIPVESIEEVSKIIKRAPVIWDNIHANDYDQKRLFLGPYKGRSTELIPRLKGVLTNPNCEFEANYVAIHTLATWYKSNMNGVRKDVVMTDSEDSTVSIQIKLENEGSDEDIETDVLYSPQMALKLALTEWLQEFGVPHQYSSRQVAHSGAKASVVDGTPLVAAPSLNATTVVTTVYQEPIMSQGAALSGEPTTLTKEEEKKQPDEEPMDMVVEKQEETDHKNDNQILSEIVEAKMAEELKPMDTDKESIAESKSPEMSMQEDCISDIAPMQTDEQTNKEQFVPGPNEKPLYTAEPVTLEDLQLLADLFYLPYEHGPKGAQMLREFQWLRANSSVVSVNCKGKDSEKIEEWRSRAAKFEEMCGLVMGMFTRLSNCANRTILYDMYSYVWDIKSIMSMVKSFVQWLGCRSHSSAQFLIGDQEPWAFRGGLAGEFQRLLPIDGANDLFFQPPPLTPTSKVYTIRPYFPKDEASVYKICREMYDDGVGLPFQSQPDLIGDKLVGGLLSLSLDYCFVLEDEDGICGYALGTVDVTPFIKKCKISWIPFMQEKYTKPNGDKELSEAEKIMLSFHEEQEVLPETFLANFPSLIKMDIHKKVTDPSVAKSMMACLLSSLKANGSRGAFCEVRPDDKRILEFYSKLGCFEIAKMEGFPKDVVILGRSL
- assay text: OGA biochemical assay (inhibition of FM-GlcNAc hydrolysis, fluorescence)
- assay context: read-out: ENZYMATIC hOGA; pIC50 (converted)
- Excerpt: The assay is based on the inhibition of the hydrolysis of fluorescein mono-β-D-N-Acetyl-Glucosamine (FM-GlcNAc) (Mariappa et al. 2015, Biochem J 470:255) by the recombinant human Meningioma Expressed Antigen 5 (MGEA5), also referred to as O-GlcNAcase (OGA). […] The fluorescence of the latter can be measured at excitation wavelength 485 nm and emission wavelength 538 nm. An increase in enzyme activity results in an increase in fluorescence signal. […]
reported property: log10 IC50 (log10 of the value in nM)

| compound | log10 IC50 |
| --- | --- |
| CC(=O)Nc1ncc(CN2CCC3(CCN(c4cncnc4)C3)C2)s1 (centres unmarked) [Product 43] | 1.73 |
| CC(=O)Nc1ncc(CN2CCC3(CCN(c4nc(C)ncc4C)C3)C2)s1 (centres unmarked) [Product 54] | 1.45 |
| Cc1cc(N2CCC3(CCN(Cc4ccc5nccnc5c4)C3)C2)cc(C)n1 (single isomer, unassigned) [Product 4] | 2.35 |
| COc1cncc(N2CCC3(CCN(Cc4cnc(NC(C)=O)s4)C3)C2)c1 (centres unmarked) [Product 67] | 1.54 |
| CC(=O)Nc1ncc(CN2CCC3(C2)CN(c2cc(C)nc(C)c2)C3)s1 [Product 23] | 2.48 |
